This section presents molecules with their documented T/C values.
tested on: C57BL/6 mice, Adenocarcinoma 755 sc, tumor weight T/C; test: NCI In Vivo Anticancer Drug Screen. Data for tumor model Adenocarcinoma 755 (subcutaneous) in C57BL/6 mice; conditions: endpoint: mean tumor weight; dose: 75.0 mg/kg/injection; schedule: Q01DX011 (ip); vehicle: saline; higher = larger tumour

A selection of reference data follows.
CCOc1ccccc1C(=O)Nc1ccc(Br)cc1 : 94 % of control
Clc1ccccc1CSc1ncnc2nc[nH]c12 : 13 % of control
Nc1nc2n[nH]nc2c(=O)[nH]1 : 6 % of control
c1ccc(Sc2ncnc3nc[nH]c23)cc1 : 14 % of control
CCCCNc1nc(N(C)C)nc2nc[nH]c12 : 29 % of control

Q) For C57BL/6 mice, Adenocarcinoma 755 sc, tumor weight T/C, provide T/C of `O=c1[nH]c(=O)c2n[nH]nc2[nH]1` please.
A) 154 % of control

Q) Can you check CCC(C)N1C(=O)CCC1=O (configuration not stated) next?
A) 59 % of control
